Where these numbers come from: patent US20260226065A1

- Measured target: NLRP3 inflammasome (Homo sapiens, UniProt Q96P20)
- Construct: endogenous in cells
- Sequence (Q96P20 whole entry): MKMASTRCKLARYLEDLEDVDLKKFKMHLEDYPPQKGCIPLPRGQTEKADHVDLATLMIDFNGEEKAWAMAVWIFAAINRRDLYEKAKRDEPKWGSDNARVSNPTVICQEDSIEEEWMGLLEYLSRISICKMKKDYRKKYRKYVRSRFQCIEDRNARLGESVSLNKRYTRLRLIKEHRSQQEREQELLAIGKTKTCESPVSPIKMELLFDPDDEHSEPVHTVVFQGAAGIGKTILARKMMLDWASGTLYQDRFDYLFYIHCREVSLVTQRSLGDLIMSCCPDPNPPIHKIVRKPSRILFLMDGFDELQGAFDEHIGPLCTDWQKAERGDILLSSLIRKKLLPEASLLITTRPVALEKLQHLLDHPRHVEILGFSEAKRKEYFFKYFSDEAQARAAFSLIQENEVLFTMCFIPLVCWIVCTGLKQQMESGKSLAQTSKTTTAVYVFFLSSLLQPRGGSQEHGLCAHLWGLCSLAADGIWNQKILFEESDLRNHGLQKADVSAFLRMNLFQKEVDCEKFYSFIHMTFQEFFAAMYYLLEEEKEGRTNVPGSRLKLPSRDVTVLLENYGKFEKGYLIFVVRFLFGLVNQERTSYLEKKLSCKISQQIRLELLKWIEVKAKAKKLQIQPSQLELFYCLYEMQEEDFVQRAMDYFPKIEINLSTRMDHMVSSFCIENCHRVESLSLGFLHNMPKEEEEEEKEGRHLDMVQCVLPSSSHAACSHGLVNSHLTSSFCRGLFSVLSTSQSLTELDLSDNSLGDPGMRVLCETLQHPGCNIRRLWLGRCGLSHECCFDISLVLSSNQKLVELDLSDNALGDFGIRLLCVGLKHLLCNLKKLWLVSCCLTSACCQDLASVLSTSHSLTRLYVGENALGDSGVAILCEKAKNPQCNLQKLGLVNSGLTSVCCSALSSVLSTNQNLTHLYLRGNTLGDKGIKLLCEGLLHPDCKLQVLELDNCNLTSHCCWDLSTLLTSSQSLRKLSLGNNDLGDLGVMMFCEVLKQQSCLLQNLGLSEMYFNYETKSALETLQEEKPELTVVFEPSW
- Test: In vitro IL-1β production test (PMA-differentiated THP-1 cells, Nigericin stimulation, AlphaLISA)
- Experimental context: inhibition of IL-1β production; THP-1 cells differentiated with 200 nM PMA; 0.015 mM Nigericin; 2 hours
Counter-ions that a name gives are not always drawn.

{"Molecule": "COc1cn(C23CCCC(O)(C2)C3)c2nnc(-c3c(C)cc(C(F)(F)F)cc3O)cc12 [Example 24]", "Unit spec": "nM", "IC50": 34.8}
{"Molecule": "Cc1cc(C(F)(F)F)cc(O)c1-c1cc2c(F)cn([C@H]3C[C@@](C)(O)C3)c2nn1 [Example 5]", "Unit spec": "nM", "IC50": 31.3}
{"Molecule": "Cc1cc(C(F)(F)F)cc(O)c1-c1cc2c(C)c(C)n([C@H]3C[C@@](C)(O)C3)c2nn1 [Example 51]", "Unit spec": "nM", "IC50": 33.6}
{"Molecule": "Cc1cc(C(F)(F)F)cc(O)c1-c1cc2c(nn1)N([C@H]1C[C@@](C)(O)C1)CC2 [Example 40, monohydrochloride]", "Unit spec": "nM", "IC50": 162}
{"Molecule": "Cc1cc(C(F)(F)F)cc(O)c1-c1cc2c(C)cn(C34COCC(O)(C3)C4)c2nn1 [Example 65]", "Unit spec": "nM", "IC50": 47}
{"Molecule": "Cc1cc(C(F)(F)F)cc(O)c1-c1cc2ccn([C@H]3C[C@@](C)(O)[C@H]3C)c2nn1 (racemic) [Example 42]", "Unit spec": "nM", "IC50": 74}
{"Molecule": "Cc1cc(C(F)(F)F)cc(O)c1-c1cc2c(nn1)N([C@@H]1CCCN(C)C1)C[C@H]2C (single isomer, unassigned) [Example 33]", "Unit spec": "nM", "IC50": 10}

----------
- Measured target: NLRP3 inflammasome (Homo sapiens, UniProt Q96P20)
- Construct: endogenous in cells
- Test: In vitro IL-1β production test (PMA-differentiated THP-1 cells, Nigericin stimulation, AlphaLISA)
- Experimental context: inhibition of IL-1β production; THP-1 cells differentiated with 200 nM PMA; 0.015 mM Nigericin; 2 hours
Overview of reported IC50 across a group of molecules:

{"Molecule": "Cc1cc(F)cc(O)c1-c1cc2c(C)cn([C@H]3C[C@@](C)(O)C3)c2nn1 [Example 91]", "Measured target": "NLRP3 inflammasome (Homo sapiens, UniProt Q96P20)", "Unit spec": "nM", "IC50": 125}
{"Molecule": "Cc1cc(C(F)(F)F)cc(O)c1-c1cc2c(nn1)N([C@@H]1CCCN(C)C1)CCCN2C [Example 37]", "Measured target": "NLRP3 inflammasome (Homo sapiens, UniProt Q96P20)", "Unit spec": "nM", "IC50": 25.8}
{"Molecule": "CCN1CCC[C@@H](n2cc(C#N)c3cc(-c4c(C)cc(OC(F)F)cc4O)nnc32)C1 [Example 67]", "Measured target": "NLRP3 inflammasome (Homo sapiens, UniProt Q96P20)", "Unit spec": "nM", "IC50": 4.93}
{"Molecule": "Cc1cc(C(F)(F)F)cc(O)c1-c1cc2c(nn1)N([C@H]1CN(C)CC[C@H]1O)CC2 [Example 49]", "Measured target": "NLRP3 inflammasome (Homo sapiens, UniProt Q96P20)", "Unit spec": "nM", "IC50": 78}
{"Molecule": "Cc1cc(OC(F)F)cc(O)c1-c1cc2c(C)cn([C@H]3C[C@@](C)(O)C3)c2nn1 [Example 13]", "Measured target": "NLRP3 inflammasome (Homo sapiens, UniProt Q96P20)", "Unit spec": "nM", "IC50": 37.6}
{"Molecule": "Cc1cc(C(F)(F)F)cc(O)c1-c1cc2ccn(C[C@H](C)O)c2nn1 [Example 89]", "Measured target": "NLRP3 inflammasome (Homo sapiens, UniProt Q96P20)", "Unit spec": "nM", "IC50": 138}
{"Molecule": "Cc1cc(C(F)(F)F)cc(O)c1-c1cc2c(C)cn(C34CCC(O)(C3)C4)c2nn1 [Example 70]", "Measured target": "NLRP3 inflammasome (Homo sapiens, UniProt Q96P20)", "Unit spec": "nM", "IC50": 31.2}
{"Molecule": "CN1CCC[C@@H](N2CCN3CCCc4c(-c5ccc(C(F)(F)F)cc5O)nnc2c43)C1 [Example 38]", "Measured target": "NLRP3 inflammasome (Homo sapiens, UniProt Q96P20)", "Unit spec": "nM", "IC50": 108}
{"Molecule": "Cc1cc(C(F)(F)F)cc(O)c1-c1cc2c(C)cn([C@@H]3CCCN(C)C3)c2nn1 [Example 56]", "Measured target": "NLRP3 inflammasome (Homo sapiens, UniProt Q96P20)", "Unit spec": "nM", "IC50": 14.4}
{"Molecule": "Cc1cc(C(F)(F)F)cc(O)c1-c1cc2c(nn1)N([C@@H]1CCCN(C)C1)CCC2 [Example 36]", "Measured target": "NLRP3 inflammasome (Homo sapiens, UniProt Q96P20)", "Unit spec": "nM", "IC50": 42.1}
{"Molecule": "Cc1cc(C(F)(F)F)cc(O)c1-c1cc2cnn(C3CCCN(C)C3)c2nn1 (racemic) [Example 31]", "Measured target": "NLRP3 inflammasome (Homo sapiens, UniProt Q96P20)", "Unit spec": "nM", "IC50": 413}
{"Molecule": "Cc1cc2c(c(O)c1-c1cc3c(C)cn([C@H]4C[C@@](C)(O)C4)c3nn1)CCC2 [Example 43]", "Measured target": "NLRP3 inflammasome (Homo sapiens, UniProt Q96P20)", "Unit spec": "nM", "IC50": 22.1}

----------
Overview of reported pIC50 across a group of compounds:
- Measured target: NLRP3 inflammasome (Homo sapiens, UniProt Q96P20)
- Construct: endogenous in cells
- Test: In vitro IL-1β production test (PMA-differentiated THP-1 cells, Nigericin stimulation, AlphaLISA)
- Experimental context: inhibition of IL-1β production; THP-1 cells differentiated with 200 nM PMA; 0.015 mM Nigericin; 2 hours
pIC50: −log10 of the molar value.

{"Compound": "Cc1cc(C(F)(F)F)cc(O)c1-c1cc2c(nn1)N([C@@H]1CCCN(C)C1)C(C)C2 (mixture of isomers)", "pIC50": 7.84}
{"Compound": "Cc1cn([C@H]2C[C@@](C)(O)C2)c2nnc(-c3c(O)cc(C(F)(F)F)cc3C#N)cc12", "pIC50": 6.56}
{"Compound": "Cc1cc(C(F)(F)F)cc(O)c1-c1cc2c3c(n([C@H]4C[C@@](C)(O)C4)c2nn1)CCO3", "pIC50": 8.04}
{"Compound": "Cc1cc(C(F)(F)F)cc(O)c1-c1cc2c(C#N)cn(C34CCCC(O)(C3)C4)c2nn1", "pIC50": 8.07}
{"Compound": "Cc1cc(C(F)(F)F)cc(O)c1-c1cc2c(nn1)N([C@H]1C[C@@](C)(O)C1)C(C)C2 (mixture of isomers)", "pIC50": 6.85}
{"Compound": "Cc1cc(C(F)(F)F)cc(O)c1-c1cc2c(nn1)N([C@@H]1CCCN(C)C1)[C@H](C)C2 (single isomer, unassigned)", "pIC50": 7.62}
{"Compound": "Cc1cc(C(F)(F)F)cc(O)c1-c1cc2c(nn1)N([C@@H]1CCCN(CC3CC3)C1)CC2", "pIC50": 7.60}
{"Compound": "Cc1cc(C(F)(F)F)cc(O)c1-c1cc2c(Cl)cn([C@H]3C[C@@](C)(O)C3)c2nn1", "pIC50": 7.58}
{"Compound": "Cc1cc(C(F)(F)F)cc(O)c1-c1cc2c(nn1)N([C@H]1C[C@@](C)(O)C1)CC2C (mixture of isomers)", "pIC50": 7.18}
{"Compound": "Cc1cc(C(F)(F)F)cc(O)c1-c1cc2c(nn1)N([C@@H]1CCCN(C)C1)C[C@@H]2C (single isomer, unassigned)", "pIC50": 8.04}
{"Compound": "Cc1cc(C(F)(F)F)cc(O)c1-c1cc2c(nn1)N([C@@H]1CCCN(C(C)C)C1)CC2", "pIC50": 8.31}
{"Compound": "Cc1cc(OC(F)F)cc(O)c1-c1cc2c(C#N)cn([C@H]3C[C@@](C)(O)C3)c2nn1", "pIC50": 7.58}
{"Compound": "Cc1cc(C(F)(F)F)cc(O)c1-c1cc2c(nn1)N([C@@H]1CCCN(C3CC3)C1)CC2", "pIC50": 8.18}
{"Compound": "CCc1cn([C@H]2C[C@@](C)(O)C2)c2nnc(-c3c(C)cc(C(F)(F)F)cc3O)cc12", "pIC50": 7.13}
{"Compound": "CCN1CCC[C@@H](N2CCc3cc(-c4c(C)cc(OC(F)(F)F)cc4O)nnc32)C1", "pIC50": 7.93}
